Quick record of IC50 values for human clotting factor VIIa (Homo sapiens).
Structures can show the parent of a compound that is named as a salt.
Numbers only; they are read as nM.

Guide cases for IC50, answers given:
• COc1cc(OCCO)c(F)c(C(Nc2ccc(C(=N)N)cc2)c2nn(-c3ncsc3C(=O)O)c(=O)[nH]2)c1 (stereo not drawn) [Example 182, trifluoroacetate] = 41.7
• COc1cc(C(Nc2ccc(C(=N)N)cc2)c2nn(-c3cccnn3)c(=O)[nH]2)cc(OCCF)c1OC (racemic) [Example 89, acetate] = 9.2
• CCc1cc(OCC(=O)N(C)C)c(F)c(C(Nc2ccc(C(=N)N)cc2)c2nn(-c3ccccc3NC(=O)OC)c(=O)[nH]2)c1 (stereo not drawn) [Example 135, trifluoroacetate] = 8.6
• COc1cc(C(Nc2ccc(C(=N)N)cc2)c2nn(-c3ncccn3)c(=O)[nH]2)cc(OC)n1 (racemic) [Example 54, acetate] = 18.7
• COc1cc(C(Nc2ccc(C(=N)N)cc2)c2nn(-c3ncccc3F)c(=O)[nH]2)cc(OC)n1 (racemic) [Example 56, acetate] = 11.2
• CCOc1cc(C(Nc2ccc(C(=N)N)cc2)c2nn(-c3ncccc3F)c(=O)[nH]2)ccc1OC (racemic) [Example 132, acetate] = 2.4
• COc1cc(OCCO)c(F)c(C(Nc2ccc(C(=N)N)cc2)c2nn(-c3ncccn3)c(=O)[nH]2)c1 (racemic) [Example 153] = 4.8
• COc1cc(C(Nc2ccc(C(=N)N)cc2)c2nn(-c3[nH]ncc3C(=O)O)c(=O)[nH]2)c(F)c2c1OCCCO2 (stereo not drawn) [Example 196, acetate] = 17.8
• CCc1cc(OCC#N)cc(C(Nc2ccc(C(=N)N)cc2)c2nn(-c3ncccn3)c(=O)[nH]2)c1 (stereo not drawn) [Example 77, acetate] = 8.8
• Cc1cc(OC2CCN(C)CC2)cc(C(Nc2ccc(C(=N)N)cc2)c2nn(-c3ncccn3)c(=O)[nH]2)c1 (racemic) [Example 43, diacetate] = 7.9

Write down IC50 measured for item COc1cc(C(Nc2ccc(C(=N)N)cc2)c2nn(-c3ncccc3F)c(=O)[nH]2)cc2c1OCOC2 (racemic) [Example 133, acetate] 6.3

Write down IC50 measured for item CCOc1cc(OC)c(F)c(C(Nc2ccc(C(=N)N)cc2)c2nn(-c3cccnn3)c(=O)[nH]2)c1 (racemic) [Example 71, acetate] 7.7

----------
- measured.target: human clotting factor VIIa (Homo sapiens)
pIC50: −log10 of the molar value.
Answer rule not met if pIC50 is under 8, and rule met if it is 8 or more.

Example entries and their recorded answers appear below.
* CCOc1cccc(C(Nc2ccc(C(=N)N)cc2)c2nn(-c3ncccn3)c(=O)[nH]2)c1 (stereo not drawn) [Example 90, acetate] | rule not met
* COc1cc(C(Nc2ccc(C(=N)N)cc2)c2nn(-c3ncccc3N)c(=O)[nH]2)cnc1OC (racemic) [Example 186, acetate] | rule met

Does the molecule COc1cc(OCCO)c(F)c(C(Nc2ccc(C(=N)N)cc2)c2nn(-c3ncc[nH]c3=O)c(=O)[nH]2)c1 (racemic) [Example 199, acetate] have recorded pIC50 that is 8 or more? rule not met

----------
Listed compounds paired with reported pIC50
- measured.target: human clotting factor VIIa (Homo sapiens, UniProt P08709)
- Construct: a human clotting factor VIIa (hereinafter, “Factor VIIa”) purified sample; purchased Enzyme Research Laboratories HFVIIa
- Sequence (P08709 213-466 limits assumed): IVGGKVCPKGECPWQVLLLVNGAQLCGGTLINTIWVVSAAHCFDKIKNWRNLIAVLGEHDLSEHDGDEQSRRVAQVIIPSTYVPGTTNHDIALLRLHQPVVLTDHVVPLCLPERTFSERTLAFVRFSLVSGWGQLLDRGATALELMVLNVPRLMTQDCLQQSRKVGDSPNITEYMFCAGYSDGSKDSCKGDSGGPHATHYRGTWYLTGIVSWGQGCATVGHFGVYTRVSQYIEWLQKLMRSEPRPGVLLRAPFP
- Sequence (P08709 61-212 limits assumed): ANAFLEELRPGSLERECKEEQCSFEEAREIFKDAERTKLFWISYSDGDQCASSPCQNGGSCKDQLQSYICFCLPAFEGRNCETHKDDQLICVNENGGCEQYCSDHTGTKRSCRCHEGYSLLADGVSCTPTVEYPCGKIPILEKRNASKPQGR
- Sequence (P13726 33-295 partner): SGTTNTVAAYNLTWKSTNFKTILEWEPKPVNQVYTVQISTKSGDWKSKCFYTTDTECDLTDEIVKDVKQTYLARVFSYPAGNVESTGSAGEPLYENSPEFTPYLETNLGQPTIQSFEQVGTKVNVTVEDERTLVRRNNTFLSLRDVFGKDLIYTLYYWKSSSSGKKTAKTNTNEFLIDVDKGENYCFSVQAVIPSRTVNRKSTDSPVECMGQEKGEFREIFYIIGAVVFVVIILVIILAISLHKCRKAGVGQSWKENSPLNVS
- test.method.notes: Inhibitory activity against clotting factor VIIa (chromogenic substrate Spectrozyme FVIIa, TF/Factor VIIa enzyme solution)
- Format: biochemical
- setup.conditions: human Factor VIIa 5 nmol/L with human TF 10 nmol/L, room temperature 40 minutes, 405 nm
Counter-ions that a name gives are not always drawn.
A value of pIC50 is the negative decimal logarithm of a concentration given in moles per litre.

Guide cases for pIC50, answers given:
* COc1cc(F)c(C(Nc2ccc(C(=N)N)cc2)c2nn(-c3ncccc3OC)c(=O)[nH]2)cc1OC (stereo not shown) [Example 124, acetate] | 8.00
* COc1cc(F)c(C(Nc2ccc(C(=N)N)cc2)c2nn(-c3ncccc3F)c(=O)[nH]2)cc1OC (stereo not shown) [Example 125, acetate] | 7.99
* COc1cc(OC)cc(C(Nc2ccc(C(=N)N)cc2)c2nn(-c3ncccn3)c(=O)[nH]2)c1 (racemic) [Example 9, acetate] | 8.01
* COc1cc(C(Nc2ccc(C(=N)N)cc2)c2nn(-c3ncccn3)c(=O)[nH]2)cc2c1OCCO2 (racemic) [Example 20, acetate] | 8.01
* COc1cc(C(Nc2ccc(C(=N)N)cc2)c2nn(-c3ncccc3N)c(=O)[nH]2)cc(OC)n1 (racemic) [Example 55, acetate] | 7.99

Write down pIC50 measured for item COCCOc1cc(OC)cc(C(Nc2ccc(C(=N)N)cc2)c2nn(-c3ncccn3)c(=O)[nH]2)c1F (racemic) [Example 92, acetate] 7.94

Write down pIC50 measured for item CCOc1cc(OC)c(F)c(C(Nc2ccc(C(=N)N)cc2)c2nn(-c3ncccn3)c(=O)[nH]2)c1 (racemic) [Example 69, acetate] 7.82

Write down pIC50 measured for item COc1cc(F)c(C(Nc2ccc(C(=N)N)cc2F)c2nn(-c3ncccn3)c(=O)[nH]2)cc1OC (racemic) [Example 236, acetate] 7.93

Write down pIC50 measured for item CCOc1cc(C(Nc2ccc(C(=N)N)cc2)c2nn(-c3cccnn3)c(=O)[nH]2)ccc1OC (racemic) [Example 121, acetate] 8.17

Write down pIC50 measured for item COc1cc(C(Nc2ccc(C(=N)N)c(F)c2)c2nn(-c3ccsc3C(=O)O)c(=O)[nH]2)c(F)c2c1OCCO2 (racemic) 8.19

Write down pIC50 measured for item COc1cc(F)c(C(Nc2ccc(C(=N)N)cc2)c2nn(-c3cnccn3)c(=O)[nH]2)cc1OC (racemic) [Example 101, acetate] 7.96

Write down pIC50 measured for item COc1ccccc1-n1nc(C(Nc2ccc(C(=N)N)cc2)c2cc(C)c(OC)c(C)c2)[nH]c1=O (stereo not shown) [Example 112, acetate] 8.14

Write down pIC50 measured for item CCOc1cc(CF)cc(C(Nc2ccc(C(=N)N)cc2)c2nn(-c3ncccn3)c(=O)[nH]2)c1 (stereo not shown) [Example 84, acetate] 7.77

Write down pIC50 measured for item COc1ccccc1-n1nc(C(Nc2ccc(C(=N)N)cc2)c2cc(C)cc(OCCF)c2F)[nH]c1=O (stereo not shown) [Example 91, trifluoroacetate] 8.19

Write down pIC50 measured for item COc1cc(C(Nc2ccc(C(=N)N)cc2)c2nn(-c3ncccn3)c(=O)[nH]2)c(F)c2c1OCC2 (racemic) [Example 40, acetate] 8.05

Write down pIC50 measured for item COc1cc(C(Nc2ccc(C(=N)N)cc2)c2nn(-c3ccccc3C(=O)O)c(=O)[nH]2)cc(C)n1 (racemic) [Example 38, acetate] 8.13

Origin of measurements: patent US7816522B2
